# Tested on: NCI/ADR-RES complex spheroid viability
# experiment_summary: Anticancer human tumor NCI/ADR-RES cell line growth inhibition;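 note: spheroids exposed to compounds for 7 days; 100% = DMSO vehicle treated spheroids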
# stated_conditions: second compound 0.316 µM; first compound 0.3 µM; active compounds read low
# Description: Multicellular complex tumor spheroid response to LSD1 Inhibitor Iadademstat in combination with a variety of drugs and investigational agents in selected tumor cell lines The current study was undertaken to assess response to LSD1 inhibitors in combination with standard-of-care drugs and investigational agents in solid tumor complex spheroid models as well as in the K-562 leukemia. […] Compounds. […] If the clinical Cmax for an agent had not been determined, the highest concentration tested was 10 microM. […]
assay_endpoint: viability, T/C (%)

molecule="COc1cc(C2c3cc4c(cc3C(OC3OC5COC(C)OC5C(O)C3O)C3COC(=O)C23)OCO4)cc(OC)c1O (stereo unspecified) + NC1CC1c1ccc(-c2cccc(O)c2)cc1" assayed_target="NCI/ADR-RES complex spheroid viability" measured_value=104
molecule="COc1cc(C2c3cc4c(cc3C(OC3OC5COC(C)OC5C(O)C3O)C3COC(=O)C23)OCO4)cc(OC)c1O (stereo unspecified) + NC1CCC(NC2CC2c2ccccc2)CC1" assayed_target="NCI/ADR-RES complex spheroid viability" measured_value=100
molecule="O=C(C=Cc1cccc(S(=O)(=O)Nc2ccccc2)c1)NO + NC1CC1c1ccc(-c2cccc(O)c2)cc1" assayed_target="NCI/ADR-RES complex spheroid viability" measured_value=17.3
molecule="NS(=O)(=O)OCC1CC(n2ccc3c(NC4CCc5ccccc54)ncnc32)CC1O (stereo unspecified) + NC1CCC(NC2CC2c2ccccc2)CC1" assayed_target="NCI/ADR-RES complex spheroid viability" measured_value=74.7
molecule="Nc1ncn(C2CC(O)C(CO)S2)c(=O)n1 (stereo unspecified) + NC1CC1c1ccc(-c2cccc(O)c2)cc1" assayed_target="NCI/ADR-RES complex spheroid viability" measured_value=2.75
molecule="Nc1ncn(C2CC(O)C(CO)S2)c(=O)n1 (stereo unspecified) + NC1CCC(NC2CC2c2ccccc2)CC1" assayed_target="NCI/ADR-RES complex spheroid viability" measured_value=6.79

* * *

# Test system: NCI/ADR-RES complex spheroid viability
# experiment_summary: Anticancer human tumor NCI/ADR-RES cell line growth inhibition;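 note: spheroids exposed to compounds for 7 days; 100% = DMSO vehicle treated spheroids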
# stated_conditions: second compound 10 µM; first compound 0.01 µM; active compounds read low
assay_endpoint: viability, T/C (%)

molecule="Nc1ncn(C2CC(O)C(CO)O2)c(=O)n1 (centres undefined) + NC1CCC(NC2CC2c2ccccc2)CC1" measured_value=57.8
molecule="COc1cc(Nc2ncc3c(n2)-c2ccc(Cl)cc2C(c2c(F)cccc2OC)=NC3)ccc1C(=O)O + NC1CCC(NC2CC2c2ccccc2)CC1" measured_value=63.7
molecule="Cn1ncnc1C1c2n[nH]c(=O)c3cc(F)cc(c23)NC1c1ccc(F)cc1 (centres undefined) + NC1CCC(NC2CC2c2ccccc2)CC1" measured_value=92.9
molecule="Nc1ncn(C2CC(O)C(CO)O2)c(=O)n1 (centres undefined) + NC1CC1c1ccc(-c2cccc(O)c2)cc1" measured_value=63.7

* * *

# Tested on: NCI/ADR-RES complex spheroid viability
# experiment_summary: Anticancer human tumor NCI/ADR-RES cell line growth inhibition;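 note: spheroids exposed to compounds for 7 days; 100% = DMSO vehicle treated spheroids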
# stated_conditions: second compound 0.1 µM; first compound 0.1 µM; active compounds read low
assay_endpoint: viability, T/C (%)

molecule="CC(C)CC(NC(=O)C(Cc1ccccc1)NC(=O)c1cnccn1)B(O)O (stereo unspecified) + NC1CCC(NC2CC2c2ccccc2)CC1" units_text=% measured_value=4
molecule="Nc1ncn(C2CC(O)C(CO)O2)c(=O)n1 (stereo unspecified) + NC1CC1c1ccc(-c2cccc(O)c2)cc1" units_text=% measured_value=32.8
molecule="Nc1ncn(C2CC(O)C(CO)O2)c(=O)n1 (stereo unspecified) + NC1CCC(NC2CC2c2ccccc2)CC1" units_text=% measured_value=48.6
molecule="CC[C@@]1(O)C(=O)OCc2c1cc1n(c2=O)Cc2cc3c(CN(C)C)c(O)ccc3nc2-1 + NC1CCC(NC2CC2c2ccccc2)CC1" units_text=% measured_value=3.21
molecule="CC1COCCN1c1cc(C2(S(C)(=N)=O)CC2)nc(-c2ccnc3[nH]ccc23)n1 (stereo unspecified) + NC1CC1c1ccc(-c2cccc(O)c2)cc1" units_text=% measured_value=108
molecule="CC(C)CC(NC(=O)C(Cc1ccccc1)NC(=O)c1cnccn1)B(O)O (stereo unspecified) + NC1CC1c1ccc(-c2cccc(O)c2)cc1" units_text=% measured_value=0.38
molecule="Cn1ncnc1C1c2n[nH]c(=O)c3cc(F)cc(c23)NC1c1ccc(F)cc1 (stereo unspecified) + NC1CCC(NC2CC2c2ccccc2)CC1" units_text=% measured_value=96.6
molecule="COc1cc(Nc2ncc3c(n2)-c2ccc(Cl)cc2C(c2c(F)cccc2OC)=NC3)ccc1C(=O)O + NC1CCC(NC2CC2c2ccccc2)CC1" units_text=% measured_value=23.2
molecule="CC(C)CC(NC(=O)CNC(=O)c1cc(Cl)ccc1Cl)B1OC(=O)CC(CC(=O)O)(C(=O)O)O1 (stereo unspecified) + NC1CCC(NC2CC2c2ccccc2)CC1" units_text=% measured_value=8.2
molecule="CC1(C)CCC(CN2CCN(c3ccc(C(=O)NS(=O)(=O)c4ccc(NCC5CCOCC5)c([N+](=O)[O-])c4)c(Oc4cnc5[nH]ccc5c4)c3)CC2)=C(c2ccc(Cl)cc2)C1 + NC1CC1c1ccc(-c2cccc(O)c2)cc1" units_text=% measured_value=109
molecule="CC1COCCN1c1cc(-c2ccnn2C)c2ccnc(-c3ccn[nH]3)c2n1 (stereo unspecified) + NC1CC1c1ccc(-c2cccc(O)c2)cc1" units_text=% measured_value=2.87
molecule="CC1COCCN1c1cc(C2(S(C)(=N)=O)CC2)nc(-c2ccnc3[nH]ccc23)n1 (stereo unspecified) + NC1CCC(NC2CC2c2ccccc2)CC1" units_text=% measured_value=104
molecule="CC1(C)CCC(CN2CCN(c3ccc(C(=O)NS(=O)(=O)c4ccc(NCC5CCOCC5)c([N+](=O)[O-])c4)c(Oc4cnc5[nH]ccc5c4)c3)CC2)=C(c2ccc(Cl)cc2)C1 + NC1CCC(NC2CC2c2ccccc2)CC1" units_text=% measured_value=101
molecule="O=C(C=Cn1cnc(-c2cc(C(F)(F)F)cc(C(F)(F)F)c2)n1)NNc1cnccn1 + NC1CC1c1ccc(-c2cccc(O)c2)cc1" units_text=% measured_value=6.61
molecule="CC1COCCN1c1cc(-c2ccnn2C)c2ccnc(-c3ccn[nH]3)c2n1 (stereo unspecified) + NC1CCC(NC2CC2c2ccccc2)CC1" units_text=% measured_value=4.62
molecule="O=C(C=Cn1cnc(-c2cc(C(F)(F)F)cc(C(F)(F)F)c2)n1)NNc1cnccn1 + NC1CCC(NC2CC2c2ccccc2)CC1" units_text=% measured_value=13.6

* * *

# Test system: NCI/ADR-RES complex spheroid viability
# experiment_summary: Anticancer human tumor NCI/ADR-RES cell line growth inhibition;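 note: spheroids exposed to compounds for 7 days; 100% = DMSO vehicle treated spheroids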
# stated_conditions: second compound 10 µM; first compound 0.316 µM; active compounds read low
Measured viability, T/C by item
assay_endpoint: viability, T/C

compound="CC1COCCN1c1cc(C2(S(C)(=N)=O)CC2)nc(-c2ccnc3[nH]ccc23)n1 (stereo not drawn) + NC1CCC(NC2CC2c2ccccc2)CC1" measured_value=89.7%
compound="CC1(C)CCC(CN2CCN(c3ccc(C(=O)NS(=O)(=O)c4ccc(NCC5CCOCC5)c([N+](=O)[O-])c4)c(Oc4cnc5[nH]ccc5c4)c3)CC2)=C(c2ccc(Cl)cc2)C1 + NC1CC1c1ccc(-c2cccc(O)c2)cc1" measured_value=92.3%
compound="CC(C)c1c(-c2ccccc2)nc2c(C#N)c[nH]n2c1=O + NC1CC1c1ccc(-c2cccc(O)c2)cc1" measured_value=91.7%

* * *

# System: NCI/ADR-RES complex spheroid viability
# experiment_summary: Anticancer human tumor NCI/ADR-RES cell line growth inhibition;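 note: spheroids exposed to compounds for 7 days; 100% = DMSO vehicle treated spheroids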
# stated_conditions: second compound 10 µM; first compound 0.03 µM; active compounds read low
assay_endpoint: viability, T/C (%)

compound="Nc1ncn(C2CC(O)C(CO)S2)c(=O)n1 (stereo not drawn) + NC1CCC(NC2CC2c2ccccc2)CC1" units_text=% measured_value=31
compound="CCc1c2c(nc3ccc(O)cc13)-c1cc3c(c(=O)n1C2)COC(=O)[C@]3(O)CC + NC1CCC(NC2CC2c2ccccc2)CC1" units_text=% measured_value=0.53
compound="Nc1ncn(C2CC(O)C(CO)S2)c(=O)n1 (stereo not drawn) + NC1CC1c1ccc(-c2cccc(O)c2)cc1" units_text=% measured_value=26.2
